Parameter IC50: see the listing below.
# tested.system: CCR(9) (Homo sapiens)
# Construct: CCR(9)-expressing cells such as T cell line MOLT-4 cells; host or cells: MOLT-4 cells
# Sequence (P51686 whole entry): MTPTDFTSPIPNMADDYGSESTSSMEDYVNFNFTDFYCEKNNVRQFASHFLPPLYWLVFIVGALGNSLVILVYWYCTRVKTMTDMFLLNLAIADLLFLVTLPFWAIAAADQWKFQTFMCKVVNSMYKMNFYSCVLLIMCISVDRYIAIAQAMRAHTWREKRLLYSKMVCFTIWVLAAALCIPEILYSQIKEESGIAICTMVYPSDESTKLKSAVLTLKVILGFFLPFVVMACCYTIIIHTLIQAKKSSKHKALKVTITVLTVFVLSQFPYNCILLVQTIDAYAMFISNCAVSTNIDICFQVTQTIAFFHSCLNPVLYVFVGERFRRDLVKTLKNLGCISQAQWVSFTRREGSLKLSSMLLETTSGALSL
# assay.text: serum chemotaxis (migration) assay, MOLT-4 cells in human serum, TECK
# Assay type: cell-based
# cond: read-out: A2

# smiles.repr, tested.system, IC50
rows = [
    ("Cc1cc(NS(=O)(=O)c2ccc(OC(F)(F)F)cc2)n(-c2cccc3ncccc23)n1", "CCR(9) (Homo sapiens)", "501 to 2500 nM"),
    ("CC(C)(C)c1ccc(S(=O)(=O)Nc2cc(C#N)nn2-c2cccc3ncccc23)cc1", "CCR(9) (Homo sapiens)", "501 to 2500 nM"),
    ("Cc1cc(NS(=O)(=O)c2ccc(C(C)(C)C)cc2)n(-c2cccc3ncccc23)n1", "CCR(9) (Homo sapiens)", "< 500 nM"),
    ("Cc1cc(NS(=O)(=O)c2ccc(C(C)(C)C)cc2)n(-c2ccc(Br)c3ncccc23)n1", "CCR(9) (Homo sapiens)", "501 to 2500 nM"),
    ("Cc1cc(NS(=O)(=O)c2ccc(C(C)(C)C)cc2F)n(-c2cccc3ncccc23)n1", "CCR(9) (Homo sapiens)", "501 to 2500 nM"),
]

[Q] Record request: IC50 value, item `Cc1cc(NS(=O)(=O)c2ccc(C(C)(C)C)cc2)n(-c2n[nH]c(=O)c3ccccc23)n1`
[A] 501 to 2500 nM

[Q] Next entry: `COc1ccc(-n2nc(C)cc2NS(=O)(=O)c2ccc(C(C)(C)C)c(F)c2)c2cccnc12`
[A] < 500 nM

[Q] Next entry: `CC(C)(C)c1ccc(S(=O)(=O)Nc2cc(C(F)(F)F)nn2-c2cccc3ncccc23)cc1`
[A] 501 to 2500 nM

[Q] Next entry: `Cc1cc(NS(=O)(=O)c2ccc(C(C)(C)C)c(F)c2)n(-c2ccc(Br)c3ncccc23)n1`
[A] < 500 nM

[Q] Next entry: `COCc1cc(NS(=O)(=O)c2ccc(C(C)(C)C)cc2)n(-c2cccc3ncccc23)n1`
[A] < 500 nM

[Q] Next entry: `Cc1cc(NS(=O)(=O)c2ccc(OCC(C)C)cc2)n(-c2cccc3ncccc23)n1`
[A] > 2500 nM

[Q] Next entry: `Cc1cc(NS(=O)(=O)c2ccc(C(C)(C)C)c(F)c2)n(-c2ccc(C#N)c3ncccc23)n1`
[A] < 500 nM

[Q] Next entry: `CCC(C)(C)c1ccc(S(=O)(=O)Nc2cc(C)nn2-c2cccc3ncccc23)cc1`
[A] 501 to 2500 nM

[Q] Next entry: `Cc1cc(NS(=O)(=O)c2ccc(C(C)(C)C)c(F)c2)n(-c2ccc(N)c3ncccc23)n1`
[A] 501 to 2500 nM

[Q] Next entry: `Cc1cc(NS(=O)(=O)c2ccc(C(C)(C)C)cc2)n(-c2cccc3c[n+]([O-])ccc23)n1`
[A] > 2500 nM

[Q] Next entry: `Cc1cc(NS(=O)(=O)c2ccc(C(C)(C)C)cc2)n(-c2cc(N)nc3ccccc23)n1`
[A] 501 to 2500 nM

[Q] Next entry: `Cc1cc(NS(=O)(=O)c2cc(F)c(C(C)(C)C)c(F)c2)n(-c2cccc3ncccc23)n1`
[A] < 500 nM

[Q] Next entry: `COc1cnc(-n2nc(C)cc2NS(=O)(=O)c2ccc(C(C)(C)C)cc2)c2ccccc12`
[A] 501 to 2500 nM
